System: binding of His-XIAP(BIR2)-avi fusion protein to GST-RIPK2 fusion protein (RIPK2/XIAP) (Homo sapiens, UniProt O43353)
Construct: made in house; host or cells: baculovirus infected Sf9 cells
Sequence (O43353 1-310 limits assumed): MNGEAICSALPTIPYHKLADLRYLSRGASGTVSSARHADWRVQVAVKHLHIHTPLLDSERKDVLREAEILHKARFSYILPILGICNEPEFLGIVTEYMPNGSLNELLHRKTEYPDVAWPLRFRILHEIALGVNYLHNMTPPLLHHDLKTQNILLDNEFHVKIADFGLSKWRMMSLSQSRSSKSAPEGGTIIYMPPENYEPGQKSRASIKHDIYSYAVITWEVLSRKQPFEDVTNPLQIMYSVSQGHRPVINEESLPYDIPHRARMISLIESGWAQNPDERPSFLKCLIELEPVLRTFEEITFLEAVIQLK
Protocol Description: RIPK2-XIAP binding competition PPI assay (TR-FRET)
Condition Notes: RIPK2/XIAP binding competition PPI assay; read-out: PPI IC50 bin
Parameter: IC50. Scope: all listed entries.

Reference set (8 entries):
INSERT INTO results (compound, quantity, val) VALUES
  ('COc1cc2ncc(-c3cccc(NS(=O)(=O)C4CCOC4)c3)n2cc1S(=O)(=O)C(C)(C)C (stereo not drawn)', 'IC50', '2.5 to 20 nM'),
  ('CCS(=O)(=O)Nc1cc(-c2cnc3cc(OC[C@H](C)O)c(S(=O)(=O)C(C)(C)C)cn23)cc(F)c1OC', 'IC50', '< 1 nM'),
  ('C[C@@H](CO)COc1cn2ncc(-c3cc(F)c(N)nc3F)c2cc1S(=O)(=O)C(C)(C)C', 'IC50', '1 to 2.5 nM'),
  ('COc1cc2ncc(-c3cc(F)c(N)nc3F)n2cc1S(=O)(=O)C1(C)CCOCC1', 'IC50', '> 20 nM'),
  ('OCCCNc1cc(-c2cnc3ccc(C(F)(F)F)cn23)cc(F)n1', 'IC50', '> 20 nM'),
  ('COc1cc2ncc(-c3cc(F)c(OC)c(NCc4cnn(C)c4)c3)n2cc1S(=O)(=O)C(C)(C)C', 'IC50', '< 1 nM'),
  ('COc1cc2ncc(-c3cc(NS(=O)(=O)c4cnn(C)c4)c(OC)c(OC)c3)n2cc1N1CC(C)CC1=O (single isomer, unassigned) [Example 274]', 'IC50', '2.5 to 20 nM'),
  ('COc1cc2ncc(-c3cc(F)c(OC)c(NS(=O)(=O)c4cnn(C)c4)c3)n2cc1C1(F)CCNCC1', 'IC50', '< 1 nM');

Enquiry: // returns reported IC50 for input `COc1cc2ncc(-c3ccc4nc(N)ccc4c3)n2cc1S(=O)(=O)C(C)(C)C`
Return: > 20 nM
